protocolSummary: Bioavailability in mouse
Format: ADME, organism-based
conditionSet: in vivo
measurementKind: bioavailability

// bioavailability lookup, molecule = COC[C@H](C)Oc1cc(CCc2c(F)cccc2F)cc(C(=O)Nc2ccc(C(=O)O)cn2)c1 , result: 66%

---

protocolSummary: Clearance in mouse
Format: ADME, organism-based
conditionSet: in vivo
measurementKind: clearance

// clearance lookup, compound = COC[C@H](C)Oc1cc(CCc2c(F)cccc2F)cc(C(=O)Nc2ccc(C(=O)O)cn2)c1 , result: 2.5 mL/min/kg

---

testedOn: Hexokinase-4 (Homo sapiens, UniProt P35557)
Sequence (P35557 whole entry): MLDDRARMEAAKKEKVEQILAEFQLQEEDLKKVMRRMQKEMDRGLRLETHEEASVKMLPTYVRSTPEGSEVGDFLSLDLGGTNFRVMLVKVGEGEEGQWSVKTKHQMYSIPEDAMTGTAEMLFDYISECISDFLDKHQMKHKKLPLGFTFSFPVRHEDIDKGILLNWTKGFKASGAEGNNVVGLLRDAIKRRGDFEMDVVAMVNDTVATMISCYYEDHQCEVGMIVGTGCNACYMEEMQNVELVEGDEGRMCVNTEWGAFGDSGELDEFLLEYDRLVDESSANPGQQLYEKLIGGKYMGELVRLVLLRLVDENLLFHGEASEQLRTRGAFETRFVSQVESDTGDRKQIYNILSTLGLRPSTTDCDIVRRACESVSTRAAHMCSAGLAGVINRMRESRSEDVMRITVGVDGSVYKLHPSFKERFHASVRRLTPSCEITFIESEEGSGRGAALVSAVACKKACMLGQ
protocolSummary: Induction of human hepatic glucokinase activity at 5 mM glucose concentration
measurementKind: EC50 (nM)
Give just the numeric value; nM need not be written.

Sample COC[C@H](C)Oc1cc(CCc2c(F)cccc2F)cc(C(=O)Nc2ccc(C(=O)O)cn2)c1 , system: Hexokinase-4 (Homo sapiens, UniProt P35557). Its EC50 is 85
